All values here come from patent US20220267469A1.

Molecular target: T1, Mouse BSSL, recombinant (mouse, UniProt Q64285 21-599)
T1 construct: Bought (R&D Systems, Cat. no 5658-CE); also called mBSSL; murine BSSL
T1 sequence: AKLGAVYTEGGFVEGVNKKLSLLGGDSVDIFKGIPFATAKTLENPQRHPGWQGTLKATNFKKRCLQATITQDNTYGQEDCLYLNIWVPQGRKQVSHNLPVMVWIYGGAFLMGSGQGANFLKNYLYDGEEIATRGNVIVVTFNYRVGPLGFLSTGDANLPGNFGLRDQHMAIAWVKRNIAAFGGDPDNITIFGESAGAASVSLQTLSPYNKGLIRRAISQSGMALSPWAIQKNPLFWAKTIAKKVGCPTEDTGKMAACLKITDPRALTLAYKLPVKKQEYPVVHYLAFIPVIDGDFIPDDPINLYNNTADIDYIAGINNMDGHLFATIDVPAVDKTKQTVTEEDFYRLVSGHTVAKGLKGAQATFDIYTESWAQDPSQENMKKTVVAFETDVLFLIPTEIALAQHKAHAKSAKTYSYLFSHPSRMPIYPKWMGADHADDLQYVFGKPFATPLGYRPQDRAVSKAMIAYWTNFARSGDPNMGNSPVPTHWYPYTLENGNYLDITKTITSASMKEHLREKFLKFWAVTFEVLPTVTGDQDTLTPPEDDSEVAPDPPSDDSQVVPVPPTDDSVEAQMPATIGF
Assay: SPR steady state, hIgG4 S228P captured by anti-Fab
Form field: Kd (one value per entry).
Report field: quantity (unit follows the number).

Problem: Quick one: Kd for S-SL048-75 hIgG4 S228P (antibody, V domains shown, Tested as human IgG4 S228P) VH: QVQLVQSGAEVKKPGASVKVSCKASGYTFTSYNMHWVRQAPGQGLEWMGVIYPGGGYTSYAQKFKGRVTMTRDTSTSTVYMELSSLRSEDTAVYYCARDYYGSSPLGYWGQGTLVTVSS VL: DIQMTQSPSSLSASVGDRVTITCRASQSISYLNWYQQKPGKAPKLLIYATSNLQSGVPSRFSGSGSGTDFTLTISSLQPEDFATYYCHQRSSSPTFGQGTKLEIK ?
Result: 164 nM

Problem: Quick one: S-SL048-10 hIgG4 S228P (antibody, V domains shown, Tested as human IgG4 S228P) VH: QVQLVQSGAEVKKPGASVKVSCKASGYTFTSYNMHWVRQAPGQGLEWIGVINPSDGYTSYAQKFQGRVTMTRDTSTSTVYMELSSLRSEDTAVYYCARDYYGSSPLGYWGQGTLVTVSS VL: DIQMTQSPSSLSASVGDRVTITCRASPSISYLNWYQQKPGKAPKLLIYATSRLPSGVPSRFSGSGSGTDFTLTISSLQPEDFATYYCQQRSSSPTFGQGTKLEIK
Result: 57 nM

Problem: Continue with S-SL048-108 hIgG4 S228P (antibody, V domains shown, Tested as human IgG4 S228P) VH: QVQLVQSGAEVKKPGASVKVSCKASGYTFTSYNMHWVRQAPGQGLEWIGVINPSDGATSYAQKFKGRVTMTRDTSTSTVYMELSSLRSEDTAVYYCARDYYGSSPLGYWGQGTLVTVSS VL: DIQMTQSPSSLSASVGDRVTITCSASPSISYLNWYQQKPGKAPKLLIYATSSLASGVPSRFSGSGSGTDFTLTISSLQPEDFATYYCQQRSSSPTFGQGTKLEIK
Result: 149 nM
